Measured melting point accompanies every entry in the list below.

Example entries begin here.
| compound | melting point |
| --- | --- |
| CSCCC(NS(=O)(=O)c1ccccc1F)C(=O)O (configuration not stated) | 104 to 106 °C |
| COC(=O)c1cc(Br)cc(S(=O)(=O)Cl)c1 | 59 to 61 °C |
| Cc1ccc(CNC(=S)Nc2ccccc2)cc1 | 147 to 149 °C |
| N#Cc1cnc2ccccn12 | 154 to 156 °C |
| Cc1nn(CC(C)C)c(C)c1CCC(=O)O | 80 to 90 °C |
| Cc1ccccc1Cc1cnc(N)s1 | 102 to 104 °C |

// next entry
Input CCCC(=O)c1cccc([N+](=O)[O-])c1 . Output melting point: 59 to 63 °C

* * *

Measured melting point accompanies every entry in the list below.

Example entries begin here.
| smiles_str | melting point |
| --- | --- |
| COC(=O)/C=C1\SCC(=O)N1CCCCl | 95 to 97 °C |
| O=C(c1ccc(Br)cc1)c1ccccc1F | 35 to 37 °C |
| NNc1ccc(S(=O)(=O)N2CCCC2)cn1 | 164 to 166 °C |
| COc1cccc(-c2nnn[nH]2)c1 | 181 to 183 °C |
| O=C(O)CCc1nnnn1-c1ccccc1 | 119 to 121 °C |

Input N#Cc1cc([N+](=O)[O-])ccc1S(=O)(=O)Cl . Output melting point: 99 to 101 °C

Input Cc1scc(C(=O)O)c1C . Output melting point: 139 to 141 °C

* * *

Measured melting point accompanies every entry in the list below.

| compound | melting point |
| --- | --- |
| COc1cc(OC)c(S(=O)(=O)Cl)cc1Br | 193 to 195 °C |
| O=C(CCl)Nc1cccc(C(=O)Nc2cccc(C(F)(F)F)c2)c1 | 197 to 199 °C |
| N#CC=CS(=O)(=O)c1ccc(Cl)cc1 | 141 to 143 °C |
| OC(c1ccccc1)C1CCNCC1 (centres undefined) | 171 to 173 °C |
| Cn1cnnc1Sc1ccc(N)cc1 | 153 to 157 °C |
| O=C(Cc1ccc(Cl)cc1)c1ccccn1 | 49 to 51 °C |

Input CC(C(=O)O)c1ccc2c(c1)OCCO2 (centres undefined) . Output melting point: 77 to 79 °C

Input O=C(O)C(=O)c1ccc(Cl)cc1 . Output melting point: 87 to 89 °C

Input FC(F)(F)Oc1cccc2c(Cl)ccnc12 . Output melting point: 51 to 53 °C

Input Cc1csc2ncc(C(=O)O)c(=O)n12 . Output melting point: 249 to 251 °C

Input COc1cc(C=O)ccc1OCC(=O)O . Output melting point: 184 to 186 °C

Input CC1CCCN(c2ccccc2O)C1 (centres undefined) . Output melting point: 44 to 46 °C

Input Cc1cccc(-n2c(C)cc(C(=O)CCl)c2C)c1 . Output melting point: 99 to 101 °C

Input Cn1cc(Br)nn1 . Output melting point: 99 to 101 °C

Input Nc1nnc(-c2ccc(Br)cc2F)s1 . Output melting point: 194 to 196 °C

Input N#Cc1ccc2[nH]c(=O)[nH]c2c1 . Output melting point: 296 to 298 °C

Input CSc1nsc(N)n1 . Output melting point: 146 to 148 °C

Input CCCOc1cc2c(cc1OCCC)CCNCC2 . Output melting point: 61 to 63 °C

Input CC(C)(C)OC(=O)NC(CC(=O)O)C1CC1 (centres undefined) . Output melting point: 111 to 113 °C

* * *

Measured melting point accompanies every entry in the list below.

Example entries begin here.
| compound | readout_name | assay_value |
| --- | --- | --- |
| O=C1NCCNC1c1cccs1 (centres undefined) | melting point | 111 to 113 °C |
| COc1cc(C)c(C=O)cc1OC | melting point | 70 to 72 °C |
| CNC(=O)c1ccccc1O | melting point | 83 to 85 °C |
| Nc1nnc(-c2ccoc2)[nH]1 | melting point | 188 to 190 °C |
| O=C(O)c1cc(-c2c(F)cccc2F)no1 | melting point | 181 to 183 °C |
| Cc1cc(=O)[nH]c(-c2ncccn2)n1 | melting point | 172 to 174 °C |
| Nc1cc(Cl)ccc1C(=O)Nc1ccc(Cl)cn1 | melting point | 157 to 159 °C |
| CCOc1cccc2c1OCC(C(=O)O)C2 (centres undefined) | melting point | 160 to 162 °C |
| Cc1c[nH]c(=O)n1-c1ccc(C#N)cc1 | melting point | 230 to 232 °C |
| COc1ccc2nc(Cl)ccc2c1 | melting point | 103 to 105 °C |

Input CC(Cl)c1nnc(-c2ccc(F)cc2)o1 (centres undefined) . Output melting point: 67 to 69 °C

Input CCOc1cccc2c1OCC(C(=O)O)=C2 . Output melting point: 219 to 221 °C

Input O=C(CCl)NC1CCOCC1 . Output melting point: 82 to 84 °C

Input CC(C)(C)OC(=O)NC(CN)CN . Output melting point: 58 to 60 °C

* * *

readout_name: melting point

Example entries begin here.
| compound | melting point |
| --- | --- |
| CCc1sc(C(=O)NNC(=O)CCl)cc1C | 160 to 162 °C |
| CN(C)S(=O)(=O)c1ccc(/C=C/C(=O)O)cc1 | 268 to 270 °C |
| O=C(CC1CCCCC1)Nc1cccc2c1NCCC2 | 179 to 181 °C |
| CC(C)(C)c1cc(NC(=O)CBr)on1 | 139 to 141 °C |

Input Cc1[nH]c2ccccc2c(=O)c1C(C)C . Output melting point: 299 to 301 °C

Input Cc1c(NC(=O)C(C)Cl)cccc1[N+](=O)[O-] (centres undefined) . Output melting point: 120 to 122 °C

Input Cn1ccc(C(=O)c2ccc(F)cc2)n1 . Output melting point: 68 to 70 °C

Input CCOC(=O)c1sc2nc(CSc3ccccc3)nc(Cl)c2c1C . Output melting point: 52 to 54 °C

Input O=C1C=CC(=O)N1c1cccc(O)c1 . Output melting point: 113 to 115 °C

Input Nc1nc(Cl)c(C=O)c(N2CCCC2)n1 . Output melting point: 176 to 178 °C

Input CS(=O)(=O)c1ncc[nH]1 . Output melting point: 206 to 208 °C

Input O=c1sc2ccccc2nc1NO . Output melting point: 244 to 246 °C

Input Cc1nn(-c2ccc(Cl)c(Cl)c2)c(C)c1CC(=O)O . Output melting point: 140 to 142 °C

Input Nc1ccc(Oc2cnccn2)cc1 . Output melting point: 138 to 140 °C

Input COc1ccc(C)cc1C(=O)CBr . Output melting point: 73 to 75 °C

Input CCCn1nc(C(=O)O)ccc1=O . Output melting point: 132 to 134 °C

Input O=C(O)c1cc2c(cc1Cl)N1CCCCCC1=NS2(=O)=O . Output melting point: 251 to 253 °C

Input COc1cc(O)ncc1Br . Output melting point: 203 to 205 °C

* * *

Measured melting point accompanies every entry in the list below.

Input O=C(O)Cn1c(=O)cnc2ccccc21 . Output melting point: 195 to 199 °C

Input O=C(CCl)Nc1ccccc1Sc1ccccc1 . Output melting point: 159 to 161 °C

Input O=C(O)c1cc(N2CCNC2=O)c(F)cc1F . Output melting point: 246 to 248 °C

Input FC(F)(F)c1ccc2nnc(S)n2c1 . Output melting point: 120 to 122 °C

Input Cc1cc(N)n(C(C)(C)C)n1 . Output melting point: 66 to 68 °C

Input Fc1ccc(-c2csc3nc(Cc4ccc(Cl)cc4)nc(Cl)c23)cc1 . Output melting point: 148 to 150 °C

Input CC(CC(=O)O)c1ccc(C(F)(F)F)cc1 (stereo not drawn) . Output melting point: 88 to 90 °C

Input CC(C)Sc1ccc([N+](=O)[O-])cc1C(=O)O . Output melting point: 184 to 186 °C

Input COc1ccccc1-c1csc(=O)[nH]1 . Output melting point: 127 to 129 °C

Input NC(=S)CC(=O)NCc1ccccc1 . Output melting point: 112 to 116 °C

Input [N-]=[N+]=Nc1ccc(I)cc1 . Output melting point: 33 to 35 °C

Input Cc1cn2c(=O)c(C(=O)O)cnc2s1 . Output melting point: 239 to 241 °C

Input CC(=O)c1ccc(-c2ccc(Cl)cc2)s1 . Output melting point: 120 to 122 °C

Input CC1(C)CCc2c(sc(N)c2C(=O)N2CCOCC2)C1 . Output melting point: 138 to 140 °C

Input O=C(O)Cn1nnc(-c2cccs2)n1 . Output melting point: 220 to 222 °C

* * *

Measured melting point accompanies every entry in the list below.

| compound | readout_name | assay_value |
| --- | --- | --- |
| O=C(CCl)NCCOc1ccccc1 | melting point | 67 to 69 °C |
| NS(=O)(=O)CCC(=O)O | melting point | 111 to 113 °C |
| COc1cccc2c1OCCC2=O | melting point | 80 to 82 °C |
| O=C(O)c1csc2cncn12 | melting point | 229 to 231 °C |
| O=C(c1cc(Br)c[nH]1)C(Cl)(Cl)Cl | melting point | 125 to 127 °C |
| O=S1(=O)CCC(CCBr)C1 (centres undefined) | melting point | 56 to 58 °C |

Input c1ccc2sc(NCC3CCCO3)nc2c1 (centres undefined) . Output melting point: 130 to 132 °C

Input COC(=O)C(C)Sc1ccccc1C(=O)O (centres undefined) . Output melting point: 118 to 120 °C
